- systemUnderTest: hERG (KCNH2) (Homo sapiens, UniProt Q12809)
- Sequence (Q12809 whole entry): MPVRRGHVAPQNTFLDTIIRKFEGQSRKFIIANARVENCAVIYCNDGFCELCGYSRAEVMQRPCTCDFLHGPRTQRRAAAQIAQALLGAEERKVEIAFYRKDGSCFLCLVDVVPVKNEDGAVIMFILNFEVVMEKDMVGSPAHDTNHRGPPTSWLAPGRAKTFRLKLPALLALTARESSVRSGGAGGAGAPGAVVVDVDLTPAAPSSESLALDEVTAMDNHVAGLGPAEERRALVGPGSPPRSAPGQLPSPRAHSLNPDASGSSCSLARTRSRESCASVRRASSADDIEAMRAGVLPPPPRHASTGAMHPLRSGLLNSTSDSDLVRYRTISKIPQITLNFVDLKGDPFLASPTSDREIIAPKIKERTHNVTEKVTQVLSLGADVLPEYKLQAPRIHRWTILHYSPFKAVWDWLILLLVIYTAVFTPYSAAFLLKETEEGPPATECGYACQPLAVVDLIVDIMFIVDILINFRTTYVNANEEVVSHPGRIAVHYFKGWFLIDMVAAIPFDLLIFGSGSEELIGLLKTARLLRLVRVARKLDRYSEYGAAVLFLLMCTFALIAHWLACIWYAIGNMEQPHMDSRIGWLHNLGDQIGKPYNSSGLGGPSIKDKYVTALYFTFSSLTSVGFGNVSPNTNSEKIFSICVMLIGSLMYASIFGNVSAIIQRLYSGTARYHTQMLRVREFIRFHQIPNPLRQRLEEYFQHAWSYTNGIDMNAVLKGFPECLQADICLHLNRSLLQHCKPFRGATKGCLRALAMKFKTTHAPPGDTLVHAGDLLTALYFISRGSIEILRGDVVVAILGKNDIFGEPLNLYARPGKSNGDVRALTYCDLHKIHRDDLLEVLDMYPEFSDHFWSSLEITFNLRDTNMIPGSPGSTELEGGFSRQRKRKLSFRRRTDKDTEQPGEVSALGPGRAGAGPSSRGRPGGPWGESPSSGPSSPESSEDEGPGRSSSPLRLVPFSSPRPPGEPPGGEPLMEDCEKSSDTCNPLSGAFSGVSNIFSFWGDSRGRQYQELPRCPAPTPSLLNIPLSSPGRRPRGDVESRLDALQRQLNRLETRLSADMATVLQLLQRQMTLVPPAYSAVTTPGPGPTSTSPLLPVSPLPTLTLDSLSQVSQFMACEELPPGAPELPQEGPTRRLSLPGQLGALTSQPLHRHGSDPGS
- experimentDescription: Inhibition of human ERG expressed in CHO cells at 30 uM by automated patch clamp assay relative to control
- Assay type: cell-based
- conditionDescription: CHO cells that express hERG
readout: inhibition at 30 µM (%)

- smilesStr: "O=C(Cc1ccc(F)c(C(F)(F)F)c1)N1CCN(c2ccc3nncn3n2)CC1"
  readout: "inhibition at 30 µM"
  measurementUnits: "%"
  readoutValue: 84

* * *

Property: microsomal CLint; scope: individual compounds
- experimentDescription: Metabolic stability in mouse intestinal S9 fraction assessed as intrinsic clearance measured upto 60 mins
- Type: ADME, subcellular, Intestine
- conditionDescription: read-out: CLH

- smilesStr: "O=C(Cc1ccc(Cl)c(Cl)c1)N1CCN(c2ccc3nncn3n2)CC1"
  microsomal CLint: "< 5.8 µL/min/mg"
- smilesStr: "O=C(Cc1ccc(F)c(C(F)(F)F)c1)N1CCN(c2ccc3nncn3n2)CC1"
  microsomal CLint: "< 5.8 µL/min/mg"

* * *

- systemUnderTest: hERG (KCNH2) (Homo sapiens, UniProt Q12809)
- experimentDescription: Inhibition of human ERG expressed in CHO cells at 10 uM by automated patch clamp assay relative to control
- Format: cell-based
- conditionDescription: CHO cells that express hERG
readout: inhibition at 10 µM

- smilesStr: "O=C(Cc1ccc(F)c(C(F)(F)F)c1)N1CCN(c2ccc3nncn3n2)CC1"
  readout: "inhibition at 10 µM"
  readoutValue: "58%"

* * *

As shown below, each of these molecules has a reported inhibition at 30 µM value.
- systemUnderTest: hERG (KCNH2) (Homo sapiens, UniProt Q12809)
- experimentDescription: Displacement of [3H]Dofetilide from human ERG at 30 uM by automated patch clamp assay relative to control
- conditionDescription: probe [3H]Dofetilide, read-out: Activity

- smilesStr: "O=C(Cc1ccc(F)c(CF)c1)N1CCN(c2ccc3nncn3n2)CC1"
  systemUnderTest: "hERG (KCNH2) (Homo sapiens, UniProt Q12809)"
  inhibition at 30 µM, %: 38
- smilesStr: "O=C(Cc1ccc(F)c(C(F)F)c1)N1CCN(c2ccc3nncn3n2)CC1"
  systemUnderTest: "hERG (KCNH2) (Homo sapiens, UniProt Q12809)"
  inhibition at 30 µM, %: 23

* * *

- systemUnderTest: hERG (KCNH2) (Homo sapiens, UniProt Q12809)
- experimentDescription: Inhibition of human ERG expressed in CHO cells at 1 uM by automated patch clamp assay relative to control
- Type: cell-based
- conditionDescription: CHO cells that express hERG
readout: inhibition at 1 µM (%)

- smilesStr: "O=C(Cc1ccc(F)c(C(F)(F)F)c1)N1CCN(c2ccc3nncn3n2)CC1"
  measurementUnits: "%"
  readoutValue: 15

* * *

- experimentDescription: Metabolic stability in mouse liver microsomes assessed as intrinsic clearance measured upto 60 mins
- Format: ADME, Microsome
- conditionDescription: read-out: CLH
readout: microsomal CLint (µL/min/mg)

- smilesStr: "O=C(Cc1ccc(F)c(C(F)(F)F)c1)N1CCN(c2ccc3nncn3n2)CC1"
  readingQualifier: "<"
  readoutValue: 57.8
- smilesStr: "O=C(Cc1ccc(Cl)c(Cl)c1)N1CCN(c2ccc3nncn3n2)CC1"
  readingQualifier: "="
  readoutValue: 85.2
